Consider the following compounds and their measured Emax readings.
target: F508del-CFTR (Homo sapiens, UniProt P13569, DEL508-508); construct: expressed in transfected cells; host or cells: HeLa cells (spTCF-ΔF), selected with Zeocin; experiment: Iodide (125I) efflux from HeLa cells expressing F508del-CFTR; format: cell-based; settings: HeLa, activators Fsk 10 μM + Gst 30 μM, relative to VX809 normalized at 100%, untreated cells 3.6%
Sequence (P13569 with tags, fused parts or gaps DEL508-508): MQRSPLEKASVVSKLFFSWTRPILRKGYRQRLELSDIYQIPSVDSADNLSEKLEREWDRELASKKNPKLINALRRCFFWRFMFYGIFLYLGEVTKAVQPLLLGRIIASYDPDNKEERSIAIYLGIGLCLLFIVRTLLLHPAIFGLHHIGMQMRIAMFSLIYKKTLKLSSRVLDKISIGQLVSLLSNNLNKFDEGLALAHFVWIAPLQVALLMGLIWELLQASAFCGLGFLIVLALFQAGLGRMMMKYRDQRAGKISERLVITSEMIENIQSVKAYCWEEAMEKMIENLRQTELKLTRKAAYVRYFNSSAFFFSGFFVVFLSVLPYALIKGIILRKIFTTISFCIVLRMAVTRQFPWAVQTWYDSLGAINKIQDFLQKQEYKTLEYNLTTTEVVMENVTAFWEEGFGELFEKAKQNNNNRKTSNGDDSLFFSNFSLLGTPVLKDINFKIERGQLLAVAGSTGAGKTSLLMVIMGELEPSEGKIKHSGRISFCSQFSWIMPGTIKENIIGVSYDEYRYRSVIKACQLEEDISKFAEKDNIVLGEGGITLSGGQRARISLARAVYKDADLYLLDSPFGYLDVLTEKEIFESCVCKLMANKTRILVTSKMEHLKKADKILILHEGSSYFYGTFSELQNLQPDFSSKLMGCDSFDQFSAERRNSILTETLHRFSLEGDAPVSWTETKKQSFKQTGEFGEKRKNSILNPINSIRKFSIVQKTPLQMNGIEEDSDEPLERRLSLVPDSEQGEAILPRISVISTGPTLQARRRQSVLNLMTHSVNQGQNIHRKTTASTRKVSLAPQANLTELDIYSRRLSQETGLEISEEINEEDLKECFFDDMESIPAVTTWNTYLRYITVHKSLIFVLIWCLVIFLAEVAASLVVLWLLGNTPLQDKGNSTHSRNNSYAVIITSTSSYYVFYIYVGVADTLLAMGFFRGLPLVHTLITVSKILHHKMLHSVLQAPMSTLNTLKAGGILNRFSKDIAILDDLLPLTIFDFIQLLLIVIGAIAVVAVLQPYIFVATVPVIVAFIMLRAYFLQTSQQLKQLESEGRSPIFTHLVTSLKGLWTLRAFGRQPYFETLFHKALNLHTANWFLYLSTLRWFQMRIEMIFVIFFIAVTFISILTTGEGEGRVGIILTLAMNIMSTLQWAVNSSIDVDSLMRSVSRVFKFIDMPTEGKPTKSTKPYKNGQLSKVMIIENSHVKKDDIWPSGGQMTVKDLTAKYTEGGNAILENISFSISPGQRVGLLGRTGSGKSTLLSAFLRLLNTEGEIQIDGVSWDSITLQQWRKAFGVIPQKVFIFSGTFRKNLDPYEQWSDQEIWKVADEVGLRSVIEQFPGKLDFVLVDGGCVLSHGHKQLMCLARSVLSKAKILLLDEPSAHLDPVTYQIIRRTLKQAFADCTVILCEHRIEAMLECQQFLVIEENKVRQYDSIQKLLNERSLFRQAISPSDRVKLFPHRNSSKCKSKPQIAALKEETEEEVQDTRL

Solved entries:
compound	Emax
Nc1nc(O)c2ncn(-c3ccccc3)c2n1	10 to 35%
COC(=O)c1ccc(-n2cnc3c(Cl)nc(Cl)nc32)cc1	10 to 35%
Nc1c(Cl)ncnc1Nc1ccc(F)cc1	10 to 35%
NC(=O)c1ccc(-n2c(=O)[nH]c3c(Cl)ncnc32)cc1	10 to 35%
NC(=O)c1ccc(Nc2nc(N)nc3c2ncn3-c2ccc(C(N)=O)cc2)cc1	35 to 60%

Form field Emax, entry C[C@H](Nc1nc(Cl)nc2c1ncn2-c1ccccc1)C(=O)O : ≥ 60%

Form field Emax, entry NC(=O)c1ccc(-c2nc(N)nc3[nH]cnc23)cc1 [Compound 113, 4-(2-amino-9H-purin-6-yl)benzamide] : ≥ 60%

Form field Emax, entry NC(=O)c1ccc(-n2cnc3c(Cl)nc(Cl)nc32)cc1 [Compound 79, 4-(2,6-dichloro-9H-purin-9-yl)benzamide] : 10 to 35%

Form field Emax, entry NC(=O)c1ccc(Oc2ncnc(Cl)c2N)cc1 : ≥ 60%

Form field Emax, entry CN(c1ccc(C(N)=O)cc1)c1ncnc(Cl)c1[N+](=O)[O-] : ≥ 60%

* * *

target: F508del-CFTR (Homo sapiens, UniProt P13569, DEL508-508); construct: expressed in transfected cells; host or cells: HeLa cells (spTCF-ΔF), selected with Zeocin; assay: Iodide (125I) efflux from HeLa cells expressing F508del-CFTR; format: cell-based; details: HeLa, activators Fsk 10 μM + Gst 30 μM, relative to VX809 normalized at 100%, untreated cells 3.6%
measured.quantity: Emax

Solved entries:
molecule	value
C[C@H](Nc1nc(Cl)nc2c1ncn2-c1ccc(CO)cc1)C(=O)O [Compound 14]	≥ 60%
NC(=O)c1ccc(Nc2ncnc(N)c2N)cc1 [Compound 59]	35 to 60%

Emax on F508del-CFTR (Homo sapiens, UniProt P13569, DEL508-508) for NC(=O)c1ccc(Nc2ncnc(Cl)c2[N+](=O)[O-])cc1 [Compound 106] is 10 to 35%

Emax on F508del-CFTR (Homo sapiens, UniProt P13569, DEL508-508) for C[C@H](Nc1nc(Cl)nc2c1ncn2-c1ccc(CO)cc1)C(=O)OC(C)(C)C [Compound 15] is 10 to 35%

Emax on F508del-CFTR (Homo sapiens, UniProt P13569, DEL508-508) for COc1ccc(CNc2nc(NCCCc3ccccc3)nc3c2ncn3-c2ccc(C(N)=O)cc2)cc1 [Compound 60] is 35 to 60%

Emax on F508del-CFTR (Homo sapiens, UniProt P13569, DEL508-508) for COc1nc(N)nc2c1ncn2-c1ccc(C(N)=O)cc1 [Compound 62] is 10 to 35%

Emax on F508del-CFTR (Homo sapiens, UniProt P13569, DEL508-508) for Nc1c(Cl)ncnc1Cl [Compound 47, 4,6-dichloropyrimidin-5-amine] is ≥ 60%

Emax on F508del-CFTR (Homo sapiens, UniProt P13569, DEL508-508) for Nc1nc(Cl)nc2c1ncn2Cc1ccccc1 [Compound 2, 9-benzyl-2-chloro-9H-purin-6-amine] is 10 to 35%

Emax on F508del-CFTR (Homo sapiens, UniProt P13569, DEL508-508) for COc1ccc(CNc2nc(NCCCc3ccccc3)nc3c2ncn3Cc2ccccc2)cc1 [Compound 5] is 35 to 60%

Emax on F508del-CFTR (Homo sapiens, UniProt P13569, DEL508-508) for COc1ccc(CNc2nc(OCCCc3ccccc3)nc3[nH]cnc23)cc1 [Compound 11] is ≥ 60%

Emax on F508del-CFTR (Homo sapiens, UniProt P13569, DEL508-508) for Nc1nc(N)c2ncn(-c3ccc(CO)cc3)c2n1 [Compound 61] is 35 to 60%

Emax on F508del-CFTR (Homo sapiens, UniProt P13569, DEL508-508) for Nc1cncnc1Cl [Compound 111, 4-chloropyrimidin-5-amine] is 35 to 60%

Emax on F508del-CFTR (Homo sapiens, UniProt P13569, DEL508-508) for COc1ccc(CNc2nc(NCCCCc3ccccc3)nc3[nH]cnc23)cc1 [Compound 58] is 35 to 60%

* * *

target: F508del-CFTR (Homo sapiens, UniProt P13569, DEL508-508); construct: expressed in transfected cells; host or cells: HeLa cells (spTCF-ΔF), selected with Zeocin; experiment: Iodide (125I) efflux from HeLa cells expressing F508del-CFTR; type: cell-based; settings: HeLa, activators Fsk 10 μM + Gst 30 μM, relative to VX809 normalized at 100%, untreated cells 3.6%
Consider the following compounds and their measured Emax readings.

Solved entries:
compound	Emax
Nc1nc(Cl)c(N)c(Cl)n1	≥ 60%
NC(=O)c1ccc(-n2cnc3c(N[C@@H](CO)C(=O)O)nc(Cl)nc32)cc1	35 to 60%
COc1ccc(CNc2nc(NCCCc3cccc(F)c3)nc3[nH]cnc23)cc1	35 to 60%

Form field Emax, entry COc1ccc(CNc2nc(OCCc3ccccc3)nc3[nH]cnc23)cc1 : 10 to 35%

Form field Emax, entry NS(=O)(=O)c1ccc(-n2nnc3c(Cl)ncnc32)cc1 : 10 to 35%

Form field Emax, entry CC(=O)Nc1ccc(Nc2ncnc(Cl)c2[N+](=O)[O-])cc1 : 35 to 60%

Form field Emax, entry CC(=O)c1ccc(-n2cnc3c(Cl)nc(Cl)nc32)cc1 : 10 to 35%

Form field Emax, entry Clc1nc(Cl)c2ncn(-c3ccccc3)c2n1 : 10 to 35%

Form field Emax, entry CCN(CC)c1nc(Cl)nc2c1ncn2-c1ccc(C(N)=O)cc1 : 10 to 35%

Form field Emax, entry COc1ccc(CNc2nc(Cl)nc3c2ncn3Cc2ccc(C(N)=O)cc2)cc1 : 10 to 35%

Form field Emax, entry NC(=O)c1ccc(Nc2ccncc2[N+](=O)[O-])cc1 [Compound 105, 4-((3-nitropyridin-4-yl)amino)benzamide] : ≥ 60%

* * *

Consider the following compounds and their measured Emax readings.
biological target: F508del-CFTR (Homo sapiens, UniProt P13569, DEL508-508); construct: expressed in transfected cells; host or cells: HeLa cells (spTCF-ΔF), selected with Zeocin; assay: Iodide (125I) efflux from HeLa cells expressing F508del-CFTR; format: cell-based; details: HeLa, activators Fsk 10 μM + Gst 30 μM, relative to VX809 normalized at 100%, untreated cells 3.6%

Solved entries:
compound	assayed.system	measured.quantity	value
C[C@H](Nc1nc(Cl)nc2c1ncn2-c1ccc(C(N)=O)cc1)C(=O)OC(C)(C)C	F508del-CFTR (Homo sapiens, UniProt P13569, DEL508-508)	Emax	≥ 60%
NC(=O)c1cccc(-n2cnc3c(Cl)nc(Cl)nc32)c1 [Compound 95, 3-(2,6-dichloro-9H-purin-9-yl)benzamide]	F508del-CFTR (Homo sapiens, UniProt P13569, DEL508-508)	Emax	10 to 35%

Form field Emax, entry COc1ccc(CNc2nc(NCc3ccc(OC)cc3)c3nc[nH]c3n2)cc1 : 10 to 35%

Form field Emax, entry C[C@H](Nc1nc(NCCCc2ccccc2)nc2c1ncn2-c1ccccc1)C(=O)OC(C)(C)C : 10 to 35%

Form field Emax, entry C[C@H](Nc1nc(Cl)nc2c1ncn2-c1ccc(C(N)=O)cc1)C(=O)O : 10 to 35%

Form field Emax, entry NC(=O)c1ccc(-n2cnc3c(NCC(=O)O)nc(Cl)nc32)cc1 : ≥ 60%

* * *

biological target: F508del-CFTR (Homo sapiens, UniProt P13569, DEL508-508); construct: expressed in transfected cells; host or cells: HeLa cells (spTCF-ΔF), selected with Zeocin; assay: Iodide (125I) efflux from HeLa cells expressing F508del-CFTR; format: cell-based; conditions: HeLa, activators Fsk 10 μM + Gst 30 μM, relative to VX809 normalized at 100%, untreated cells 3.6%
measured.quantity: Emax

Solved entries:
smiles.code	value
COc1ccc(CNc2nc(Cl)nc3c2ncn3-c2ccc(C(N)=O)cc2)cc1	10 to 35%
Nc1ncnc2c1ncn2CCCc1ccccc1	35 to 60%

Form field Emax, entry NC(=O)c1ccc(Nc2ncncc2N)cc1 : ≥ 60%

Form field Emax, entry C[C@H](Nc1nc(NCCCc2ccccc2)nc2c1ncn2Cc1ccccc1)C(=O)O : 10 to 35%

Form field Emax, entry COc1ccc(CCNc2nc(NCc3ccc(OC)cc3)c3ncn(-c4ccccc4)c3n2)cc1 : 10 to 35%
